Assay: ATG_TA_CIS: Attagene CIS-FACTORIAL HepG2 Assay for human TA Basal Promoter (AID 2282964)
Conditions: HepG2 Attagene CIS-factorial TA basal promoter reporter; actives raise or lower the signal
The source made the active and inactive calls. The calls were made as follows: active = hit-call score of the fitted dose curve at least 0.9, where 1 is the maximum; inactive = score below 0.9.
Write down one outcome, taken from YES = active, NO = inactive

STRUCTURE | CLASSIFICATION
c1ccc2n[nH]nc2c1 | NO
CN1C(=O)CC[C@H]1c1cccnc1 | NO
O=C=NCCCCCCN=C=O | NO

query: Call for entry `CN(C[C@@H](CC[N+]12CCC(C3CCCCC3)(CC1)CC2)c1ccc(Cl)c(Cl)c1)C(=O)c1cc(C(F)(F)F)cc(C(F)(F)F)c1` :
result: NO

query: Call for entry `Cc1cccc2ccccc12` :
result: NO

query: Call for entry `CCCCCCCCOC(=O)c1cc(O)c(O)c(O)c1` :
result: NO

---

Assay: BSK_3C_VCAM1: BioMAP Diversity Plus: 3C Assay for Vascular cell adhesion molecule 1 (VCAM1) Biomarker Activity (AID 2282999)
Details: BioMAP 3C HUVEC, VCAM1 ELISA, cytokine-stimulated; actives raise or lower the signal
The source made the active and inactive calls. The calls were made as follows: active = hit-call score of the fitted dose curve at least 0.9, where 1 is the maximum; inactive = score below 0.9.
ATTRIBUTE MEASURED: AC50

Example entries begin here.
STRUCTURE | AC50
CCCCCCCCCCCO | 36.3 µM (active)
CC(C)(C)c1csc(-c2cc3cc(OCc4ccccc4CC(=O)O)ccc3o2)n1 | 29.8 µM (active)
O=C(Nc1ccc(Cl)cc1)Nc1ccc(Cl)c(Cl)c1 | 3.5 µM (active)
CC(C)(c1cc(Br)c(O)c(Br)c1)c1cc(Br)c(O)c(Br)c1 | 32.1 µM (active)

Please examine the following record next.
query: Note AC50 for the compound shown: `CC(C)(C)c1cc(/C=C2\SC(N)=NC2=O)cc(C(C)(C)C)c1O`
result: 29.4 µM (active)

---

Read-out: Macrophage colony-stimulating factor (MCSF), CSF1 (gene 1435)
Test: BSK_hDFCGF_MCSF: BioMAP Diversity Plus: hDFCGF Assay for Macrophage colony-stimulating factor (MCSF) Biomarker Activity (AID 2283060)
Details: primary human foreskin fibroblasts; actives raise or lower the signal
Active and inactive are the calls of the source. How the source made its calls: active means hit-call score of the fitted dose curve at least 0.9, where 1 is the maximum; inactive means score below 0.9.
Write down one outcome, taken from true for active, false for inactive

COMPOUND | CLASSIFICATION
CCCCCCCC[Si](OCC)(OCC)OCC | false
CN(C[C@@H](CC[N+]12CCC(C3CCCCC3)(CC1)CC2)c1ccc(Cl)c(Cl)c1)C(=O)c1cc(C(F)(F)F)cc(C(F)(F)F)c1 | true
OC12N=C(c3ccccc3)SC1Cc1cc(Cl)ccc12 (stereo unspecified) | false
O=C(O)Cc1cc(I)c(Oc2ccc(O)c(I)c2)c(I)c1 | false
COc1ccc2cc(S(=O)(=O)N[C@H](CC(=O)N[C@H](Cc3ccc(CN4[C@H](C)CCC[C@@H]4C)cc3)C(=O)N(C)C(C)C)c3ccc4c(c3)OCO4)ccc2c1 | true

We now examine a further compound.
query: Call for entry `NCc1cccc(C2CCN(C(=O)c3ccc(C#Cc4ccccc4F)o3)CC2)c1` :
result: true

---

Read-out: Transforming Growth Factor (TGFA), TGFA (gene 7039)
Assay: LTEA_HepaRG_TGFA: Life Technologies and Expression Analysis (LTEA) Assay for Transforming Growth Factor (TGFA) using HepaRG (AID 2283532)
Conditions: mRNA level, 48 h; actives raise or lower the signal
Calls of active or inactive are those of the source. How the source made its calls: active means hit-call score of the fitted dose curve at least 0.9, where 1 is the maximum; inactive means score below 0.9.
Write down one outcome, taken from active, inactive

Here are 2 compounds together with their reported answers.
COMPOUND | CLASSIFICATION
Oc1ccc2ccccc2c1 | inactive
CC(C)(c1cc(Br)c(O)c(Br)c1)c1cc(Br)c(O)c(Br)c1 | active

We now examine a further compound.
query: Call for entry `NCc1cccc(C2CCN(C(=O)c3ccc(C#Cc4ccccc4F)o3)CC2)c1` :
result: inactive
